- target-system: glucagon receptor (UniProt P47871 26-477, limits assumed)
- Sequence (P47871 26-477 limits assumed): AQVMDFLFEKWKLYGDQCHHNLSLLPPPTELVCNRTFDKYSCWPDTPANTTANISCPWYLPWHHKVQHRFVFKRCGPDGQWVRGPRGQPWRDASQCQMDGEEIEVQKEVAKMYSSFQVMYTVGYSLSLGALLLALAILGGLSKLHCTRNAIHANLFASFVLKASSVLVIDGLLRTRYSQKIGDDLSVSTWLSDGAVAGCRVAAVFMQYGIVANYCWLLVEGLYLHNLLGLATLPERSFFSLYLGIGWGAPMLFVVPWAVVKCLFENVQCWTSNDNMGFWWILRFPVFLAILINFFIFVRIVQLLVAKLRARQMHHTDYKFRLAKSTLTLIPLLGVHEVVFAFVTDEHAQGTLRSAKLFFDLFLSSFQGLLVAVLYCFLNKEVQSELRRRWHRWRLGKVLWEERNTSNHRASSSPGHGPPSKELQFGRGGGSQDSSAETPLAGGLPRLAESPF
- test-description: cell-based or functional assay
Bridges are numbered along the chain shown (N, C = ends). Where no end group is shown, it is not given here. Side-chain parts run from the residue outwards. [ ]: non-standard residue; d: D form. PEG40kDa = 40 kDa polyethylene glycol attached; Aib = CC(C)(N)C(=O)O
result-type: EC50 (cAMP reporter) (nM)
I only need the number, in nM, no unit after it.

Below are worked cases with known answers.
Y[Aib]PGTFISDYSIAMDKIHQQDFVNWLLAQKGKKNWLKHNITQ-NH2 (not fully specified) [mt-219 (SEQ ID NO: 21)]    17.6
Y[Aib]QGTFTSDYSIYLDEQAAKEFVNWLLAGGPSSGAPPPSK([Ala-Cys(PEG 40 kDa)-Ac])-NH2 (lactam 16-20) [mt-225 (SEQ ID NO: 23)]    2.71
Y[Aib]EGTFISDYSIAMDKIHQQDFVCWLLAQKGKKNWLKHNITQ-NH2 (not fully specified) [mt-220 (SEQ ID NO: 22)]    9.67
Y[Aib]PGTFISDYSIAMDKIHQQDFVC(PEG40kDa)WLLAQKGKKNWLKHNITQ-NH2 (not fully specified) [mt-228 (SEQ ID NO: 26)]    5.36
Y[Aib]EGTFISDYSIAMDKIHQQDFVNWLLAQKGKKNWLKHNITQ-NH2 (not fully specified) [mt-217 (SEQ ID NO: 19)]    13.9
Y[Aib]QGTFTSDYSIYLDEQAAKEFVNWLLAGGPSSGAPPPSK-NH2 (not fully specified) [mt-227 (SEQ ID NO: 25)]    4.24
Y[Aib]PGTFISDYSIAMDKIHQQDFVCWLLAQKGKKNWLKHNITQ-NH2 (not fully specified) [mt-226 (SEQ ID NO: 24)]    3.46

(Q) Reported EC50 (cAMP reporter) for YXEGTFISDYSIAMDKIHQQDFVNWLLAQKGKKNWLKHNITQ (not fully specified; AIB at position 2; C-terminal amide; Glu16-Lys20 lactam in some Table 3 peptides, absent in others (which ones is not stated)) [mt-218 (SEQ ID NO: 20)] : what is it?
(A) 16.3

Where these numbers come from: patent US20120238493A1
